System: methicillin-resistant S. aureus ATCC 33591 (MRS)
Assay: Antibacterial broth dilution assay against MRSA (modified CLSI)
Format: cell-based, Staphylococcus aureus
Conditions: molar IC50 ratio versus ciprofloxacen
Property measured: X more potent than ciprofloxacen

1) c1cc(CN2CCCN3CCCN(CCCNCC3)CC2)ccc1CN1CCCN2CCCN(CCCNCC2)CC1 0.05
2) [Cl-].[Cl-].[Mn+2].c1ccc(CN2CCCN3CCN(CCCN(Cc4ccccc4)CC3)CC2)cc1 0.07
3) c1ccc(CN2CCN3CCN(CC2)CCN(Cc2ccccc2)CC3)cc1 0.01
4) c1ccc(CN2CCCN3CCCN(CCCN(Cc4ccccc4)CC3)CC2)cc1 0.02
